Target: T1, LHD206 chainB, split luciferase reporter construct
T1 construct: not shown: N-terminal Strep-tag and sfGFP; GS-linker and smBiT or lgBiT
T1 chain: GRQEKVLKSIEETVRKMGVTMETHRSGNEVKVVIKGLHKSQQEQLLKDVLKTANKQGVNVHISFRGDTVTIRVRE
Experiment: split luciferase equilibrium binding in lysate
property-measured: Kd (nM)

binder: LHD206 chainA, split luciferase reporter construct (designed binder, not shown: N-terminal Strep-tag and sfGFP; GS-linker and smBiT or lgBiT) TDELLERLRQLFEELHERGTEIVVEVHINGRKTEIEVQGIDKRLLKIILEVIREEIEREGSSEVEVNVHSGGQTWTFNEK
display-unit: nM
recorded-measurement: 11
